Cited source for all entries: the nanobody polyreactivity screen of Harvey et al. (2022)

assay: yeast display, Sf9 membrane polyspecificity reagent, FACS + sequencing; frameworks hold sequencing errors
parameter: polyreactivity (PSR sort gate)

For orientation, consider the following solved cases.
residue string	reported
QVLLVESGGGLVQAGGSLRLSCAPSGRTVDSYAMGWYRQAPGKETELVAAIDWGGGTTYYADSVKGRFRISRDNAKNSVYLQMNSLKPEDTAVYYCAAGDVWIAPYDSWGQGTQVTVSS	low polyreactivity
QVQLVESGVGLVQAGGTLRLSGAASGLIFEYYAMGWYRQPPGKETELVAAITTSGGSTYYADSVKGRFTISRDIAKNTVYLQMNSLKPEDTAVYDCAAVGVRSRYYGYDYWGQGTLVTVSS	high polyreactivity
QVQLVESGGGLVQAGGSLRLSCAASGFTYSFYTMGWSRQAPGKERELVAAISRNGGSTYYADSVKGRFTISRDNAKNTVYLQMNSLKPEDTAVYYCAARARGGDWGSGDYWGQGTQVTVSS	high polyreactivity
QVQLVESIGGLVQAGGSLRLSCAASGSIFQPYAMRWYRQAPGKERELVAAITTSGGRTYYADSVKGRFTMSRDNAKNTVYLQMNSLKPEDTAVYYCAADWGIGDYDYWGQGTQVTVSS	high polyreactivity
QVQLVESGGGLVQAGGSLRLSCAASGSTFYRYAMGWYRQAPGKERELVATITNSGGSTYYADSVKGRFTISRDNAKYTVYLQMNSLKPEDTAVYYCARVRSRNTGYYYWGQGTQVTVSS	high polyreactivity
QVQLVESGGGLVQAGGSLRLSCAASGSTFDYYAMGWYRQAPVKERELVAAITGTGGSTYYADSVKGRFTISRDNAKNTVYLQINRLKPEDTAVYYCAADTYLGWSYYWGQGTQVTVSS	high polyreactivity
QVQLVESGGGLVQAGGSLRLSCAASGRIFVAYTRGWYRQAPGKERELVAAITWNSGSSTYYADSVKGRFTISGDNAKNTVYLQMNSLKPEDTAVYYCAARSAGRYWNYYWGQGTQVTVSS	high polyreactivity
QVQLVESGGGLVQAGGSLRLSCAASGRTFGKYARGWYRQAPGKERELVASITFSSGSTYYADSVKGRFTISRDNAKNTVYLQMNSLKPEDTAVYYCAKRGWGIYDYWGQGTQVTVSS	low polyreactivity

Briefly, polyreactivity (PSR sort gate) measured for QVQLVESGGGLVQAGGSLRLSCAASGFTFTQNAAMGWYRQAPGKERELVGAISSGGRTYFADSVKGRFTISRDNAKNTVYLQMNSLKPEDTAVYYCAAVYRRSDFRGAKDGYYYWGQGTQVTVSS : low polyreactivity

Sample QVQLVESGGGLVQAGGSLRLSCAASGRTFAAYAMGWYRQAPGKERELVAAISRGGGRTYYADSVKGRFTISRDNAKNTVYLQMNSLKPEDTAVYYCNAVRPRDNGSWGQGTQVTVSS ; polyreactivity (PSR sort gate) observed: high polyreactivity

// recorded polyreactivity (PSR sort gate) for QVQLVESGGGLVQAGGSLRLSCAASGLTFYSYAMGWYRQAPGKERELVAAITISGGSTYADSVKGRFTISRDNAKNTVYLQMNSLKPEDTAVYYCAVDDFRNPDYDSWGQGTQVTVSS : low polyreactivity

response.value for QVQLVESGGGLVQAGGSLRLSCAASGRTFSPYAMGWYRQAPGKERELVAAITSRGASTYYADSVKGRFTISRDNAKNTVYLQMNSLKPEDTAVYDCNSGRTYRRLGDYWGQGTQVTVSS (field: polyreactivity (PSR sort gate)) = high polyreactivity

What the record says about QVQLVESGGGLVQARGTLRLSCAASGFTVFSYAMGWYRQAPGKESELVASISGSSSTYYADSVKGRFTISRDNAKNTVSVQMNSLTPDDTAVYYCAVDYHQAWPSGDYWFEYDYWGQGTQVTVSS : polyreactivity (PSR sort gate) is low polyreactivity

Quick note, polyreactivity (PSR sort gate) for QVQLVESGGGLVQAGGSLRLSCAASGRILIGYTMGWYRQAPGTERELVARNNYSGGSTYYADSVKGRFTISRDISKNTVYLQMNSLKPEESGDYYCAADVRRGYYTWPPRRVYYWGQGTQVTVSS landed at high polyreactivity

So for QVQLVESGGGLVQAGGSLRLSCAASGRNFRANAMGWSRQEPGKERELVASITYSGGSTYYADSVKGRFTISRDNAKNTVYVQMNSLKPEDTAVYYCARAGISSGGYYYWGQGTQVTVSS , the logged polyreactivity (PSR sort gate) turned out to be low polyreactivity

----------
test: yeast display, Sf9 membrane polyspecificity reagent, FACS + sequencing; frameworks hold sequencing errors
parameter: polyreactivity (PSR sort gate)

Field: example entries. Status: answers known.
residue string	polyreactivity (PSR sort gate)
QVQLVESGGGLVQAGGSLRLSCAASGYIFYTYAMGCYRQAPGKERELVAGISGSGGSTYYADSVKGRFTISRDNAKNTVYLQMNSLNPEETAVYYCAKDIYQIGYRRYDSWGQGTQVTVSS	low polyreactivity
QVQLVESGGGLVQAGGSLRLSCAASGRNFVRYTMGWYRQAPGKERELVAAISGSGSSTFYADSVKGRFTISRDNAKNTVYLQMNSLKPEDTAVYYCAARVRRVARDPYDYWGQGTQVTVSS	high polyreactivity
QVQRVESGGGLVQAGGSLRLSCAASGGTFPQYAMGWDRQSHGKETEFVADITSRGGTTYYADSVKGRFTISRDNAKNTVYLQMNSLKPEDTAVNYCAADNPADWWGLDYWGQGTQVTVSS	low polyreactivity
QVQLVESGGGLVQAGGSLRLSCAASGSTFKYNTMGWYRQAPGKKGELVAAITISGGTTRYADSVKGRFTISRDNAKNTVYLQMNSLKPEDTAVYYCAARVYTYYYDLHKRYYWGQGTQVTVSS	high polyreactivity

// below: polyreactivity (PSR sort gate) requested for another sequence
Input QVQLVESGGGLVQAGGSLRLSCAASGRTFYKNTMGWYIQAPGKERELVATISQRGGSTYYADSVKGRFTISRDNAKNTVYLQMNSLKPEDTAVYYCNARKYTQSIHYDYWGQGTQVTVSS . Output polyreactivity (PSR sort gate): high polyreactivity

----------
assay: yeast display, Sf9 membrane polyspecificity reagent, FACS + sequencing; frameworks hold sequencing errors
parameter: polyreactivity (PSR sort gate)

Previously resolved entries follow.
residue string	parameter	reported
QVQLVESGGGLVQAGGSLRLSCAAYGGFFWYYTMGRYRQAPGKEREFVATITKRGGRTYYADSVKGRFTISRDNAKITVYLQMNSLKPEDTAVYFCNALGGPKSVRFDYWGQGTQVTVSS	polyreactivity (PSR sort gate)	high polyreactivity
QVQLVESGGGLVQAGGSLRLSCAASGSTFNSNAMGWYRQAPGKERELVAAISYSGGRTYYADSVKGRFTISRDNAKNTVYLQMNSLKPEDTAVYYCAKSPNHYIHFDYWGQGTQVTVSS	polyreactivity (PSR sort gate)	low polyreactivity
QVQLVESGGGLVQAGGSLRLSCAASGLIYFYAMGWYRQEPGKERELVAAISSSGGRTYYADSVKGRFTISRDNAKNTVYLQMNSLKPEDTAVYYCAVVSSHYKGPGRNGYDYWGQGTQVTVSS	polyreactivity (PSR sort gate)	high polyreactivity
QVQLVESGGGLVQAGGSLRLSCAASGGIFRYAMGWYRQAPGKEREFVAAITTRGGSTYYADSVKGRFTISRDNAKNTVYLQMNSLKPEDTAVYYCAARPYSGRNKYDYWGQGTQVTVSS	polyreactivity (PSR sort gate)	high polyreactivity
QVLLVESGGCLVQAGGSVRLSCAASGSTFAPYVMGWYTQAPGKERELVADISTSGSTYYADSVKGRFTISRDNAKNTVYLQMNSMKPEDTAVYYCAAEDQRWFWTYDCWGQGTQVTVSS	polyreactivity (PSR sort gate)	high polyreactivity
QVQLVESGGGLVQAGGSLRLSCAASGITLYNYAMGWYRQAPGTERELVAAISLSGGRTYYADSVKGRFTISRDNAKNTVYLQMNSLKPEDTAVYYCAADWLNSDPYNYWGQGTQVTVSS	polyreactivity (PSR sort gate)	low polyreactivity
QVQLVESGGGLVQAGGSLRISCAASGRTFGANAMGWYRQAPGKERELVASISRSGGTTYYADSVKGRFTISRDNAKNTVYLQMNSLKPEDTAVYYCAAQYVRYGHYYWGQGTQVTVSS	polyreactivity (PSR sort gate)	high polyreactivity
QVQLVESGGGLVQAGGSLRLSSSASGSIFDGYAMGWYRQAPGKEREFVAAIRWGDGIKYYADSVKGRFTISRDNAKNTVYLQMNSLTPEDTAVYYCAAVQHGHEPRVQDSYDYWGQGTQVTVSS	polyreactivity (PSR sort gate)	low polyreactivity

Kindly review the next sequence as well.
Record summary for QVQLVESGGGLVQAGGSLRLSCAASGSIFRNYAMGWYRQAPGKERELVARISYSGGRTHYADSVKGRFTISRDNAKNTVYLQMNSLKPEDTAVYYCAAPFHFTHFQGNYYWGQGTQVTVSS : reported polyreactivity (PSR sort gate) = low polyreactivity

----------
assay: yeast display, Sf9 membrane polyspecificity reagent, FACS + sequencing; frameworks hold sequencing errors
parameter: polyreactivity (PSR sort gate)

residue string	polyreactivity (PSR sort gate)
QVQLVESGGGLVQAGGSLRLSCAAYGGIFGRYAMGWYRQAPGKERELVAAISKRGGSTYYADSVKGRVTISRDNAKNTVYLQMNSLKPEETAVYYCNAAQSVELGYDYCGQGTQVTVSS	high polyreactivity
QVQHVESCGGLVQAGGSLRLSCAASGYIFSIYAMGWSRQAPGKERELVAAITWSGATTYYADSVKGRFSISRDNAKNTVYLQMNSLKPEDTAVYYCNADYWHYYEDYESWGQGTQVTVSS	low polyreactivity
QVQLVDSGGGLVQAGGSLRLSCAASGRIVELYAMGGYRQAPGKEREMVAVITNGGSTYYADSVKGRFTISRDNAKNTVYLQMNSLKPEDTAFYFCNARRGYNRVGGSYGYWGQGTQVTVSS	low polyreactivity
HVQLVESGGGLVQAGGSLRLSCAASGIIFITNAMGWYRQAPGKERELVAAISSTVSTYYADSVKGRFTISRDKAKNTVYLQMNRLKPADTAVYYCAAEWGLTQGESIYDYWGQGTQVTVSS	low polyreactivity
QVQLVESGGGLVQAGGSLRLSCAASGSIFFPNAMGWYRQAPGKERELVAAITSTSTNYADSVKGRCTNSRDNAKNTVYLQLNSLKPEDTAVYYCAADGEFRRAWYEGDYWGQGTQVTVSS	low polyreactivity

Reported polyreactivity (PSR sort gate) of QVQLVESGGGLVQAGGSLRISCAASGRTFYNNAMGWYRQAPGTERELVATIHNRGGTTYYADSVKGRFTISRYNAKNTVYLLMNSLKPEDTAVYYCAKSAQRYSYRYYYWGQGTQVTVSS : high polyreactivity

# polyreactivity (PSR sort gate) of QGQLVESGGGLVQAGGSLRLSCAASGFIFFYYAMGWYRQAPRKERELVATISANGGNTYYADSVKGRFTISRDNAKNTVYLQMNSLKPEDTAVSYCARYTWYLRDWQWYYWGDEDYWGQGTQVTVSS = high polyreactivity

The value of polyreactivity (PSR sort gate) measured for the sequence QVQLVESGGGLVQAGGSLRLSCAASGYTFASYTMGWYRQAPGKERELVATISRGGGRTYYADSVKGRFTISRDNAKNTVYLQMNSLKPEDTAVYYCARPSTFYTGYRQAHFDYWGQGTQVTVSS turned out to be high polyreactivity

polyreactivity (PSR sort gate) for QVQLVESGGGLVQAGGSLRLSCAASGNIFVWYDMGWYREAPGKERELVATITSSGGSTYYADSVKGRFTISRDNAKNTVYLQMNSLKPEDTAVYYCNALPYYRDDYWGQGTQVTVSS is low polyreactivity

Looking up QVQLVESGGGLVQAGGSLRLSCAASGSTSPFYVMGWYRQAPGKERELVAAISYSGGSTYYADSVKGRFTISRDNAKNTVYLQMISLKPEDTAVYYCAARYRLTYGLYGYWGQGTQVTVSS , I found its polyreactivity (PSR sort gate) recorded as high polyreactivity

Kindly note the recorded polyreactivity (PSR sort gate) for QVQLVESGGGLVQAGGSHRLSCSASGSIIFYYAMGWDRQAPGKEREFVAAITRSGVRTYYADSVKGRFTISRDNAKNTVYLQMNSLKPEDTAVYYCNADYGFYRPVLMGYWGQGTQVTVSS , which is low polyreactivity

Please fill in: polyreactivity (PSR sort gate) reported for QVHLVESGGGLVQAGGSLRLSCAASGSTFTPYAMGWYRQAPGKERELVAAITWRTGSTRYADSVKGRFTISRDNAKNTVYLQMNSLKPEDTAVYYCAAKVPRFGAPGVNYWGQGTQVTVSS = high polyreactivity

Input QVQLVESGGGLVQAGGSLRLICADSGRIVPGYAMGWYRQAPGKERELVAAISTNGGRTYYADSVKGRFTISRDNAKYTVYFQRNSLKPEDTAVYYCNAARAVYTQKRFDSWGQGTQVTVSS . Output polyreactivity (PSR sort gate): high polyreactivity
